system-under-test: T1, rhesus CD11a (rhesus, UniProt H9Z8N3 26-1169)
T1 construct: whole, on cells; On rhesus peripheral blood lymphocytes or leukocytes; also called rhCD11a
T1 sequence: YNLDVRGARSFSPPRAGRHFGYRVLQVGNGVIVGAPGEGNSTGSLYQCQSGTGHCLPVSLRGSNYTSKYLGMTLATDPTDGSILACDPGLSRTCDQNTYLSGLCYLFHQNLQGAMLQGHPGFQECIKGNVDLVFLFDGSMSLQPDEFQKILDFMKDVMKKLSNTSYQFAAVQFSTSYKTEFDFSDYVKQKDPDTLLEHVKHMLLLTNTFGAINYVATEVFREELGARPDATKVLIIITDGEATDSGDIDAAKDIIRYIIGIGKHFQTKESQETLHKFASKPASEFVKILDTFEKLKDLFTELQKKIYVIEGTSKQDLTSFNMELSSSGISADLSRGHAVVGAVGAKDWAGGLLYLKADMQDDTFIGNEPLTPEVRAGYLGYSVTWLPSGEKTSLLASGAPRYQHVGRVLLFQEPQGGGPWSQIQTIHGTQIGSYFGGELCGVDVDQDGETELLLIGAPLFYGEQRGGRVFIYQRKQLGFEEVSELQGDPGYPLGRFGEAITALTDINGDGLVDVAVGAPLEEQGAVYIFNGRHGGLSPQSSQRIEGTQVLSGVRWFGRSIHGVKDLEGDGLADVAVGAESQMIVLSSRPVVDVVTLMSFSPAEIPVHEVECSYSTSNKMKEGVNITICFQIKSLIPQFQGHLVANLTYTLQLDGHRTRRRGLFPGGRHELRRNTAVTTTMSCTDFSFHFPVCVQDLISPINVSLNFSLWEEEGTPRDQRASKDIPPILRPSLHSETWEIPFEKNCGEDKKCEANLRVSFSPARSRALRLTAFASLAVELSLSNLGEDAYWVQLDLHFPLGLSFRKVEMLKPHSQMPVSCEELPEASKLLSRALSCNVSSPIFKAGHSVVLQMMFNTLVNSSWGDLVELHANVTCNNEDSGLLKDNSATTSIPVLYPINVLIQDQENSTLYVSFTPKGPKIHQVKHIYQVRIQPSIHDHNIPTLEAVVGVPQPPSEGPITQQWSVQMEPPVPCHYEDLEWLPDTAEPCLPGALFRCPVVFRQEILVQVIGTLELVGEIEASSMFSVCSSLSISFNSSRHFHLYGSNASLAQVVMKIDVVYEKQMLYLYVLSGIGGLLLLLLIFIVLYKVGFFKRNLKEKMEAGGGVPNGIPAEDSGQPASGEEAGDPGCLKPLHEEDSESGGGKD
method-description: rhesus PBL binding
Each entry below carries its recorded Var.EC50/HuIgG1 EC50.
The answer is to be given in ratio; state only the numeric part.

binder	assay-readout	endpoint-value
HuIgG1 mutant LysH62Ala (antibody, V domains shown, HuIgG1 mutant, human IgG1; Kabat numbering) VH: EVQLVESGGGLVQPGGSLRLSCAASGYSFTGHWMNWVRQAPGKGLEWVGMIHPSDSETRYNQAFKDRFTISVDKSKNTLYLQMNSLRAEDTAVYYCARGIYFYGTTYFDYWGQGTLVTVSS VL: DIQMTQSPSSLSASVGDRVTITCRASKTISKYLAWYQQKPGKAPKLLIYSGSTLQSGVPSRFSGSGSGTDFTLTISSLQPEDFATYYCQQHNEYPLTFGQGTKVEIK	Var.EC50/HuIgG1 EC50	4.9

Give its Var.EC50/HuIgG1 EC50 value. Item: HuIgG1 mutant H2 (antibody, V domains shown, HuIgG1 mutant, human IgG1; Kabat numbering) VH: EVQLVESGGGLVQPGGSLRLSCAASGYSFTGHWMNWVRQAPGKGLEWVGMIAPADAETRYNQKFKDRFTISVDKSKNTLYLQMNSLRAEDTAVYYCARGIYFYGTTYFDYWGQGTLVTVSS VL: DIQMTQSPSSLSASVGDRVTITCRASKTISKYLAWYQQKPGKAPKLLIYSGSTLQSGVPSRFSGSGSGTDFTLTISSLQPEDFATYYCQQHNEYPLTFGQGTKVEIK 0.055

What measured Var.EC50/HuIgG1 EC50 goes with HuIgG1 mutant H2A1 (antibody, V domains shown, HuIgG1 mutant, human IgG1; Kabat numbering) VH: EVQLVESGGGLVQPGGSLRLSCAASGYSFTGHWMNWVRQAPGKGLEWVGMIAPADSETRYNQKFKDRFTISVDKSKNTLYLQMNSLRAEDTAVYYCARGIYFYGTTYFDYWGQGTLVTVSS VL: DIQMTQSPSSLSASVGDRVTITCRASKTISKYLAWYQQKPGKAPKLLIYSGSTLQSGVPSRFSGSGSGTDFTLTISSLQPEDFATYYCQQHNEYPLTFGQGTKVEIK ? 0.013

Quick one: Var.EC50/HuIgG1 EC50 of HuIgG1 mutant AspH54Ala (antibody, V domains shown, HuIgG1 mutant, human IgG1; Kabat numbering) VH: EVQLVESGGGLVQPGGSLRLSCAASGYSFTGHWMNWVRQAPGKGLEWVGMIHPSASETRYNQKFKDRFTISVDKSKNTLYLQMNSLRAEDTAVYYCARGIYFYGTTYFDYWGQGTLVTVSS VL: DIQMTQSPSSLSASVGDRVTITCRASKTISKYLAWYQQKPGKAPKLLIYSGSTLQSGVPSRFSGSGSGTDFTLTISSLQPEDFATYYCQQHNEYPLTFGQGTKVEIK ? 0.3
